Biological target: T1, PUF4 RNA-binding domain (Saccharomyces cerevisiae, UniProt P25339 537-888)
T1 sequence: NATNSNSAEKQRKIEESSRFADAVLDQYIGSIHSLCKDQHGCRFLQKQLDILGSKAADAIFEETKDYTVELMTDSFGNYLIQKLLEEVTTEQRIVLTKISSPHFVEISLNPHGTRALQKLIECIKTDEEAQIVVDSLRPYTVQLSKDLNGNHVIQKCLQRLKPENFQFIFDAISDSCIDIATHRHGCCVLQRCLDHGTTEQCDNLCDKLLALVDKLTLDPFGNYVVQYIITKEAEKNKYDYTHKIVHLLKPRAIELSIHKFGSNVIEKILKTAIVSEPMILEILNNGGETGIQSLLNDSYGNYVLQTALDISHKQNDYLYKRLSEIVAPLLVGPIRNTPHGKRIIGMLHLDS
Experiment: Mg; RNA-MaP; 20 mM Na-HEPES pH 7.4, 30 mM KOAc, 0.75 mM MgCl2, 0.1% Tween-20, 5% glycerol, 0.1 mg/mL BSA, 2 mM DTT; 25 C; 0.0125-409.6 nM protein
Details: tags: N-His6-TEV cleaved; C-SNAP kept, Cy3B-labelled; label: tethered on chip by stalled RNA polymerase
recorded_metric: log10 of Kd (log10 of the value in nM)
Lab note - Kd converted to log10 from values in nM.

The cases that follow already have their log10 of Kd on record.
Ib_S2_P4E.1_K4.1_C4.1_H4.1_[T1G]_[A4C]_A4.1_F4.1_T4.1 (ssRNA) RNA: UUUGAUUAAUAUGAUAUCGUUCUUUCUGGUCUAUUAUUCUUUCUCGAUAUCAUAUUAAUCUUU	3.18
Ie_S4_P3E.2_K3.1_C3.2_H3.1_[+4CCT]_A3.1_F3.1_T3.2 (ssRNA) RNA: UUUGACAACUGAUCGUUCUUUCUCUUGUACCUUAUAUAUUCUUUCUCGAUCAGUUGUCUUU	0.09
Ib_S4_P4E.1_K4.1_C4.1_H4.1_[A4T]_A4.1_[A6C]_F4.1_T4.1 (ssRNA) RNA: UUUGACAACUGAUCGUUCUUUCUUGUUUCUUAUUCUUUCUCGAUCAGUUGUCUUU	1.74
Ic_S4_P5E.1_K5.1_C5.1_H5.1_A5.1_[T5A]_[T6A]_[A7C]_F5.1_[T9A]_[A10T]_T5.1 (ssRNA) RNA: UUUGACAACUGAUCGUUCUUUCUUGUAAACUAUUUCUUUCUCGAUCAGUUGUCUUU	0.38
Id_ii_S2_P4E.2_K4.1_C4.2_[C-2T]_[T-1A]_H4.1_A4.1_F4.1_T4.2_[G10A]_[T11A] (ssRNA) RNA: UUUGAUUAAUAUGAUAUCGUUCUUUCUUAUGUAUAUUAAAUUCUUUCUCGAUAUCAUAUUAAUCUUU	0.01

# input Please look at this binder and report its log10 of Kd: UCUCUUUGUAUUUCUCUAUUAUCUCUU (ssRNA) [Ie_S1_P5E.1_K5.1_C5.1_H5.1_A5.1_[+6TCTCT]_F5.1_T5.1]
# output 1.49
